B1: EHEE_rd2_0196 (parent)
chain: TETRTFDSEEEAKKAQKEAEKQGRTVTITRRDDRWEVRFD

variants of: B1; assay: folding stability dG (cDNA display proteolysis); higher = more stable; conditions: PBS, room temperature
Endpoint: folding stability dG (kcal/mol)
Answers are plain numbers, in kcal/mol.

Worked set:
   mutations  value
0       R24M   3.32
1       F39V   2.93
2        R4V   2.99

Please look at the following variant next.
Asked: Quick check: folding stability dG of D40H ?
Given back: 2.98

Where these numbers come from: the MegaScale stability set (Tsuboyama et al. 2023)
